Catalogue of log10 IC50 values
- Test system: HT29
- PROTOCOL_DESCRIPTION: MTS assay (cytotoxicity), growth inhibition of HT29
- Type: cell-based
- RUN_CONDITIONS: Homo sapiens, HT-29, 120 h, Table 5, series III, 5 days, read-out: Growth Inhibition (IC50) HT29
OUTCOME_MEASURE: log10 IC50 (log10 of the value in nM)

• COc1c(C)cnc(CN2C(=O)/C(=C\c3cc(C(=O)NCCCN4CCOCC4)c[nH]3)c3c(Cl)nc(N)nc32)c1C [III-34] = 1.30
• COc1c(C)cnc(CN2C(=O)/C(=C\c3nc(NC(=O)C4CCOCC4)c[nH]3)c3c(Cl)nc(N)nc32)c1C [III-75] = 1.70
• COc1c(C)cnc(CN2C(=O)/C(=C\c3[nH]cnc3C)c3c(Cl)nc(N)nc32)c1C [III-4] = 2.08
• COc1c(C)cnc(CN2C(=O)/C(=C\c3cc(Br)c[nH]3)c3c(Cl)nc(N)nc32)c1C [III-11] = 2.58
• COc1c(C)cnc(CN2C(=O)/C(=C\c3cc(C(=O)NCCN4CCOCC4)c[nH]3)c3c(Cl)nc(N)nc32)c1C [III-16] = 1.70
• CCN(CC)CCNC(=O)c1c[nH]c(/C=C2\C(=O)N(Cc3ncc(C)c(OC)c3C)c3nc(N)nc(Cl)c32)c1 [III-19] = 1.00
• COc1c(C)cnc(CN2C(=O)/C(=C\c3cc(C(=O)NCCNC(C)C)c[nH]3)c3c(Cl)nc(N)nc32)c1C [III-21] = 1.78
• CCN(CC)CCNC(=O)c1c[nH]c(/C=C2\C(=O)N(Cc3cc(C)n(C)n3)c3nc(N)nc(Cl)c32)c1 [III-59] = 2.51
• COC(=O)c1ccc(/C=C2\C(=O)N(Cc3ncc(C)c(OC)c3C)c3nc(N)nc(Cl)c32)[nH]1 [III-5] = 2.75
• COc1c(C)cnc(CN2C(=O)/C(=C\c3ncc[nH]3)c3c(Cl)nc(N)nc32)c1C [III-3] = 1.85
• COc1c(C)cnc(CN2C(=O)/C(=C\c3cc(C(=O)NCCN4CCC(O)CC4)c[nH]3)c3c(Cl)nc(N)nc32)c1C [III-33] = 1.30
• COc1c(C)cnc(CN2C(=O)/C(=C\c3cc(C(=O)NCCCN4CCCC4)c[nH]3)c3c(Cl)nc(N)nc32)c1C [III-28] = 1.70
• COc1c(C)cnc(CN2C(=O)/C(=C\c3cc(C(=O)N(CCO)CCO)c[nH]3)c3c(Cl)nc(N)nc32)c1C [III-27] = 2.11
• COc1c(C)cnc(CN2C(=O)/C(=C\c3cc(C(=O)NCCO)c[nH]3)c3c(Cl)nc(N)nc32)c1C [III-18] = 2.04
• COc1c(C)cnc(CN2C(=O)/C(=C\c3[nH]ncc3Br)c3c(Cl)nc(N)nc32)c1C [III-10] = 2.68
• COc1c(C)cnc(CN2C(=O)/C(=C\c3cc(C(=O)NCCN4CCCC4)c[nH]3)c3c(Cl)nc(N)nc32)c1C [III-26] = -0.22
• COc1c(C)cnc(CN2C(=O)/C(=C\c3ccc(C(=O)C(F)(F)F)[nH]3)c3c(Cl)nc(N)nc32)c1C [III-8] = 3.12
